- experimentNotes: Population pharmacokinetic analysis of total plasma caspofungin in PICU patients (final two-compartment model, NONMEM, n = 29, 138 samples)
- Type: in vivo, human (critically ill Chinese children)
- experimentalSetup: human, plasma, iv, Bayesian posterior estimates, ECMO group, n = 4; read-out: AUCss,24h, median
readout: AUC(0-t)
Include the unit after the number when you answer.

Input line: What measured AUC(0-t) goes with CC[C@H](C)C[C@H](C)CCCCCCCCC(=O)N[C@H]1C[C@@H](O)[C@@H](NCCN)NC(=O)[C@@H]2[C@@H](O)CCN2C(=O)[C@H]([C@H](O)CCN)NC(=O)[C@H]([C@H](O)[C@@H](O)c2ccc(O)cc2)NC(=O)[C@@H]2C[C@@H](O)CN2C(=O)[C@H]([C@@H](C)O)NC1=O ?
Output line: 117 µg·h/mL
